Ref: ChEMBL document CHEMBL1138648

Measured log10 of GI50, listed per entry.
Test system: NCI-H23
Measurement Protocol: Growth inhibitory activity against non small cell lung cancer NCI-H23 cell line was determined
Type: functional
Reported Conditions: Homo sapiens
Parameter value (number): base-10 log of GI50 in nM.

Some compounds with known log10 of GI50 results, for comparison:
INSERT INTO assay_data (smiles_notation, value) VALUES
  ('O=C(Oc1ccc(Cl)cc1Cl)c1ccccc1Nc1ccnc(C(F)(F)F)c1', 3.54),
  ('O=C(Oc1ccc(Cl)cc1)c1ccccc1Nc1ccnc(C(F)(F)F)c1', 3.45),
  ('CCOC(=O)CNC(=O)c1ccccc1Nc1ccnc(C(F)(F)F)c1', 4.34);

Q: Return reported log10 of GI50 for target or system NCI-H23, item `O=C(Oc1cccc(Cl)c1)c1ccccc1Nc1ccnc(C(F)(F)F)c1` .
Ans: 3.38

Q: Lab note: NCI-H23 assay, enter log10 of GI50 for `O=C(Oc1cccnc1)c1ccccc1Nc1ccnc(C(F)(F)F)c1` here
Ans: 1.78

Q: Provide NCI-H23 log10 of GI50 reading for `COc1cccc(OC(=O)c2ccccc2Nc2ccnc(C(F)(F)F)c2)c1` .
Ans: 3.30

Q: Look up and report log10 of GI50, with NCI-H23 as system, for `O=C(Oc1ccccc1Cl)c1ccccc1Nc1ccnc(C(F)(F)F)c1`
Ans: 2.40

Q: // fetch log10 of GI50; item: `O=C(Oc1c(Cl)cc(Cl)cc1Cl)c1ccccc1Nc1ccnc(C(F)(F)F)c1` ; system: NCI-H23
Ans: 3.41

----------
Test system: NCI-H460
Measurement Protocol: Growth inhibitory activity against non small cell lung cancer H460 cell line was determined
Type: functional
Reported Conditions: Homo sapiens
Measured Property: GI50 (µM)
Dear colleague, please return just the value in µM, with no unit written.

For orientation, consider the following solved cases.
INSERT INTO measurements (smiles_notation, value) VALUES
  ('O=C(Oc1ccc(Cl)cc1Cl)c1ccccc1Nc1ccnc(C(F)(F)F)c1', 4.3),
  ('O=C(Oc1ccccc1Cl)c1ccccc1Nc1ccnc(C(F)(F)F)c1', 0.66),
  ('COc1cccc(OC(=O)c2ccccc2Nc2ccnc(C(F)(F)F)c2)c1', 4.1),
  ('O=C(Oc1cccc(Cl)c1)c1ccccc1Nc1ccnc(C(F)(F)F)c1', 11),
  ('CCOC(=O)CNC(=O)c1ccccc1Nc1ccnc(C(F)(F)F)c1', 20),
  ('O=C(Oc1cccnc1)c1ccccc1Nc1ccnc(C(F)(F)F)c1', 0.34),
  ('O=C(Oc1c(Cl)cc(Cl)cc1Cl)c1ccccc1Nc1ccnc(C(F)(F)F)c1', 3.4);

Q: Given the molecule `O=C(Oc1ccc(Cl)cc1)c1ccccc1Nc1ccnc(C(F)(F)F)c1` , write its reported GI50.
Ans: 10

----------
Tested on: SF-539
Measurement Protocol: Growth inhibitory activity against CNS cancer SF-539 cell line was determined
Assay type: functional
Reported Conditions: Homo sapiens
Measured Property: GI50 (µM)
Give the quantity in µM, number only.

INSERT INTO measurements (smiles_notation, units_text, value) VALUES
  ('O=C(Oc1ccc(Cl)cc1)c1ccccc1Nc1ccnc(C(F)(F)F)c1', 'µM', 15),
  ('O=C(Oc1ccc(Cl)cc1Cl)c1ccccc1Nc1ccnc(C(F)(F)F)c1', 'µM', 3.8),
  ('O=C(Oc1ccccc1Cl)c1ccccc1Nc1ccnc(C(F)(F)F)c1', 'µM', 0.58);

Q: # return recorded GI50 for input `CCOC(=O)CNC(=O)c1ccccc1Nc1ccnc(C(F)(F)F)c1`
Ans: 28

Q: Give me measured GI50, please, for this compound: `O=C(Oc1cccnc1)c1ccccc1Nc1ccnc(C(F)(F)F)c1`
Ans: 0.01

Q: Give me measured GI50, please, for this compound: `O=C(Oc1cccc(Cl)c1)c1ccccc1Nc1ccnc(C(F)(F)F)c1`
Ans: 2.8

----------
System: 786-0
Measurement Protocol: Growth inhibitory activity against Renal cancer 786-0 cell line was determined
Type: functional
Reported Conditions: Homo sapiens
Measured Property: GI50 (nM)
# unit: nM | format: bare number

Example entries and their recorded answers appear below.
INSERT INTO results (smiles_notation, units_text, value) VALUES
  ('O=C(Oc1ccc(Cl)cc1)c1ccccc1Nc1ccnc(C(F)(F)F)c1', 'nM', 2700),
  ('O=C(Oc1ccc(Cl)cc1Cl)c1ccccc1Nc1ccnc(C(F)(F)F)c1', 'nM', 1900),
  ('O=C(Oc1ccccc1Cl)c1ccccc1Nc1ccnc(C(F)(F)F)c1', 'nM', 250),
  ('COc1cccc(OC(=O)c2ccccc2Nc2ccnc(C(F)(F)F)c2)c1', 'nM', 3400),
  ('O=C(Oc1c(Cl)cc(Cl)cc1Cl)c1ccccc1Nc1ccnc(C(F)(F)F)c1', 'nM', 2900),
  ('CCOC(=O)CNC(=O)c1ccccc1Nc1ccnc(C(F)(F)F)c1', 'nM', 29000),
  ('O=C(Oc1cccnc1)c1ccccc1Nc1ccnc(C(F)(F)F)c1', 'nM', 270);

Q: Report measured GI50; entry is `O=C(Oc1cccc(Cl)c1)c1ccccc1Nc1ccnc(C(F)(F)F)c1`
Ans: 3500

----------
Below is a list of entries, each paired with its recorded GI50 value.
Test system: SF-295
Measurement Protocol: Growth inhibitory activity against CNS cancer SF-295 cell line was determined
Assay type: functional
Reported Conditions: Homo sapiens
Answer with a number only, understood to be in µM.

Worked examples, 5 compounds total:
INSERT INTO measurements (smiles_notation, tested_on, value) VALUES
  ('O=C(Oc1ccc(Cl)cc1Cl)c1ccccc1Nc1ccnc(C(F)(F)F)c1', 'SF-295', 15),
  ('O=C(Oc1ccccc1Cl)c1ccccc1Nc1ccnc(C(F)(F)F)c1', 'SF-295', 0.24),
  ('COc1cccc(OC(=O)c2ccccc2Nc2ccnc(C(F)(F)F)c2)c1', 'SF-295', 2.5),
  ('O=C(Oc1cccnc1)c1ccccc1Nc1ccnc(C(F)(F)F)c1', 'SF-295', 0.31),
  ('O=C(Oc1cccc(Cl)c1)c1ccccc1Nc1ccnc(C(F)(F)F)c1', 'SF-295', 18);

Q: Specify reported GI50 for the compound shown: `CCOC(=O)CNC(=O)c1ccccc1Nc1ccnc(C(F)(F)F)c1`
Ans: 71

Q: Annotate the compound `O=C(Oc1ccc(Cl)cc1)c1ccccc1Nc1ccnc(C(F)(F)F)c1` with its measured GI50.
Ans: 63

Q: Please list GI50 recorded for the compound `O=C(Oc1c(Cl)cc(Cl)cc1Cl)c1ccccc1Nc1ccnc(C(F)(F)F)c1`
Ans: 4.2

----------
Parameter log10(GI50): see the listing below.
Tested on: M14
Measurement Protocol: Growth inhibitory activity against Melanoma M14 cell line was determined
Assay type: functional
Reported Conditions: Homo sapiens
Plainly stated, the numbers are log10 of GI50 given in µM.

INSERT INTO measurements (smiles_notation, value) VALUES
  ('O=C(Oc1cccnc1)c1ccccc1Nc1ccnc(C(F)(F)F)c1', -1.52);

Q: Name the recorded log10(GI50) of the compound listed here: `O=C(Oc1cccc(Cl)c1)c1ccccc1Nc1ccnc(C(F)(F)F)c1`
Ans: 0.26

Q: Indicate its recorded log10(GI50); the compound in question is `O=C(Oc1ccc(Cl)cc1Cl)c1ccccc1Nc1ccnc(C(F)(F)F)c1`
Ans: 0.28

Q: Check the records and state log10(GI50) for `O=C(Oc1ccccc1Cl)c1ccccc1Nc1ccnc(C(F)(F)F)c1`
Ans: -1.52

Q: For the compound `COc1cccc(OC(=O)c2ccccc2Nc2ccnc(C(F)(F)F)c2)c1` , give its reported log10(GI50).
Ans: 0.11

Q: Complete the entry with log10(GI50) for `O=C(Oc1ccc(Cl)cc1)c1ccccc1Nc1ccnc(C(F)(F)F)c1`
Ans: 0.32

Q: Supply recorded log10(GI50) for `CCOC(=O)CNC(=O)c1ccccc1Nc1ccnc(C(F)(F)F)c1` here.
Ans: 1.40

Q: Identify measured log10(GI50) corresponding to `O=C(Oc1c(Cl)cc(Cl)cc1Cl)c1ccccc1Nc1ccnc(C(F)(F)F)c1`
Ans: 0.32

----------
System: NCI-H522
Measurement Protocol: Growth inhibitory activity against non small cell lung cancer H522 cell line was determined
Type: functional
Reported Conditions: Homo sapiens
Cut-off 6 µM on GI50: below means Satisfied, at or above means Not satisfied.

INSERT INTO results (smiles_notation, tested_on, category) VALUES
  ('O=C(Oc1ccccc1Cl)c1ccccc1Nc1ccnc(C(F)(F)F)c1', 'NCI-H522', 'Satisfied'),
  ('O=C(Oc1cccc(Cl)c1)c1ccccc1Nc1ccnc(C(F)(F)F)c1', 'NCI-H522', 'Satisfied'),
  ('O=C(Oc1ccc(Cl)cc1Cl)c1ccccc1Nc1ccnc(C(F)(F)F)c1', 'NCI-H522', 'Satisfied'),
  ('O=C(Oc1cccnc1)c1ccccc1Nc1ccnc(C(F)(F)F)c1', 'NCI-H522', 'Satisfied'),
  ('O=C(Oc1ccc(Cl)cc1)c1ccccc1Nc1ccnc(C(F)(F)F)c1', 'NCI-H522', 'Satisfied'),
  ('COc1cccc(OC(=O)c2ccccc2Nc2ccnc(C(F)(F)F)c2)c1', 'NCI-H522', 'Not satisfied'),
  ('CCOC(=O)CNC(=O)c1ccccc1Nc1ccnc(C(F)(F)F)c1', 'NCI-H522', 'Not satisfied');

Q: Lab note: GI50 threshold 6 µM. Does this compound come in strictly under it? `O=C(Oc1c(Cl)cc(Cl)cc1Cl)c1ccccc1Nc1ccnc(C(F)(F)F)c1`
Ans: Satisfied
